The entries below come with measured pIC50 values attached.
Experimental system: 11-beta-hydroxysteroid dehydrogenase 1 (Mus musculus)
Method description: Inhibition of mouse 11beta-HSD1 expressed in CHO cells […] incubated for 30 mins prior to substrate addition measured after 120 mins by chemiluminescence assay in presence of 10% human serum
Assay type: cell-based
pIC50: −log10 of the molar value.
Experimental endpoint: pIC50

> print(dat)
                            compound.string                       experimental.system  measurement
1  C[C@@H]1CN(c2ccc(F)cc2C(F)(F)F)CCN1S(=O)(=O)c1ccc([C@](C)(O)C(F)(F)F)s1  11-beta-hydroxysteroid dehydrogenase 1 (Mus musculus)         8.00
2  C[C@@H]1CN(c2ccc(F)cc2C(F)(F)F)CCN1S(=O)(=O)c1ccc([C@@](O)(C(N)=O)C(F)(F)F)cc1  11-beta-hydroxysteroid dehydrogenase 1 (Mus musculus)         7.32
3  C[C@@H]1CN(c2ccc(F)cc2C(F)(F)F)CCN1S(=O)(=O)c1cccc([C@](O)(C(N)=O)C(F)(F)F)c1  11-beta-hydroxysteroid dehydrogenase 1 (Mus musculus)         8.00
4  C[C@@H]1CN(c2ccc(F)cc2C(F)(F)F)CCN1S(=O)(=O)c1ccc([C@](O)(C(N)=O)C(F)(F)F)cc1  11-beta-hydroxysteroid dehydrogenase 1 (Mus musculus)         7.39

###

Method description: Cmax in C57B6 mouse at 10 mg/kg, po
Type: ADME, organism-based
Design: dose 10 mg/kg, route oral
Assay context: in vivo
Experimental endpoint: Cmax (ng/mL)

> print(dat)
                            compound.string  measurement
1  C[C@@H]1CN(c2ccc(F)cc2C(F)(F)F)CCN1S(=O)(=O)c1cccc([C@@](O)(C(N)=O)C(F)(F)F)c1         1550
2  C[C@@H]1CN(c2ccc(F)cc2C(F)(F)F)CCN1S(=O)(=O)c1ccc([C@@](O)(C(N)=O)C(F)(F)F)s1          987
3  C[C@@H]1CN(c2ccc(F)cc2C(F)(F)F)CCN1S(=O)(=O)c1ccc([C@@](C)(O)C(F)(F)F)s1          449

###

Experimental system: 11-beta-hydroxysteroid dehydrogenase 1 (Mus musculus, UniProt P50172)
Sequence (P50172 whole entry): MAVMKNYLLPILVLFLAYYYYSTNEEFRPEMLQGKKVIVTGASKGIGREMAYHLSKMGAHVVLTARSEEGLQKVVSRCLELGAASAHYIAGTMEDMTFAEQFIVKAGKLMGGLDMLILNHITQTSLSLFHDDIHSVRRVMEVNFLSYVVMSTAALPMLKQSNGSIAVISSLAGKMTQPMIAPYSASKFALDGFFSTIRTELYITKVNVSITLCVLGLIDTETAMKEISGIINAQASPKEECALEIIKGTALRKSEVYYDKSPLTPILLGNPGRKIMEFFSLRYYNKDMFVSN
Method description: Inhibition of mouse 11beta-HSD1 expressed in CHO cells […] incubated for 30 mins prior to substrate addition measured after 120 mins by chemiluminescence assay
Assay type: cell-based
Experimental endpoint: IC50 (nM)

> print(dat)
                                   compound                       experimental.system  measurement
1  C[C@@H]1CN(c2ccc(F)cc2C(F)(F)F)CCN1S(=O)(=O)c1ccc([C@@](C)(O)C(F)(F)F)s1  11-beta-hydroxysteroid dehydrogenase 1 (Mus musculus, UniProt P50172)           10
2  C[C@@H]1CN(c2ccc(F)cc2C(F)(F)F)CCN1S(=O)(=O)c1cccc([C@@](O)(C(N)=O)C(F)(F)F)c1  11-beta-hydroxysteroid dehydrogenase 1 (Mus musculus, UniProt P50172)           10
3  C[C@@H]1CN(c2ccc(F)cc2C(F)(F)F)CCN1S(=O)(=O)c1ccc(C(C)(O)C(F)(F)F)s1 (some centres undefined)  11-beta-hydroxysteroid dehydrogenase 1 (Mus musculus, UniProt P50172)           10
4  C[C@@H]1CN(c2ccc(F)cc2C(F)(F)F)CCN1S(=O)(=O)c1ccc([C@@](O)(C(N)=O)C(F)(F)F)s1  11-beta-hydroxysteroid dehydrogenase 1 (Mus musculus, UniProt P50172)           10

###

The entries below come with measured pIC50 values attached.
Experimental system: 11-beta-hydroxysteroid dehydrogenase type 2 (Homo sapiens)
Sequence (P80365 whole entry): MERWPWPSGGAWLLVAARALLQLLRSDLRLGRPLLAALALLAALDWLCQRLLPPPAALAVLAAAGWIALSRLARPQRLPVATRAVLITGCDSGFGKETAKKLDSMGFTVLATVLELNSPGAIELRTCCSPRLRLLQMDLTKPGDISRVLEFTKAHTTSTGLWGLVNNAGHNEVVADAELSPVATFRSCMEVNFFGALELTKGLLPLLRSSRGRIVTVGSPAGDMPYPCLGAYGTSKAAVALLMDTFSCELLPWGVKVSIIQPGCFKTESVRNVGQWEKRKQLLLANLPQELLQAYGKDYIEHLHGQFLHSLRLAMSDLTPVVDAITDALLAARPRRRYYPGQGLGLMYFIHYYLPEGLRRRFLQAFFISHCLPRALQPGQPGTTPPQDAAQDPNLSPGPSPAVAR
Method description: Inhibition of human 11beta-HSD2 expressed in CHO cells using […] as substrate incubated for 30 mins prior to substrate addition measured after 120 mins by scintillation counting analysis
pIC50: −log10 of the molar value.
Experimental endpoint: pIC50

> print(dat)
                            compound.string  measurement
1  C[C@@H]1CN(c2ccc(F)cc2C(F)(F)F)CCN1S(=O)(=O)c1cccc([C@@](O)(C(N)=O)C(F)(F)F)c1       < 4.00
2  C[C@@H]1CN(c2ccc(F)cc2C(F)(F)F)CCN1S(=O)(=O)c1ccc([C@@](C)(O)C(F)(F)F)s1       < 4.00
3  C[C@@H]1CN(c2ccc(F)cc2C(F)(F)F)CCN1S(=O)(=O)c1ccc([C@@](O)(C(N)=O)C(F)(F)F)s1       < 4.00

###

The entries below come with measured pIC50 values attached.
Experimental system: 11-beta-hydroxysteroid dehydrogenase 1 (Mus musculus)
Method description: Inhibition of mouse 11beta-HSD1 expressed in CHO cells […] incubated for 30 mins prior to substrate addition measured after 120 mins by chemiluminescence assay in presence of 10% human serum
Type: cell-based
pIC50: −log10 of the molar value.
Experimental endpoint: pIC50

> print(dat)
                                   compound                       experimental.system  experimental.endpoint  measurement
1  C[C@@H]1CN(c2ccc(F)cc2C(F)(F)F)CCN1S(=O)(=O)c1ccc([C@@](C)(O)C(F)(F)F)s1  11-beta-hydroxysteroid dehydrogenase 1 (Mus musculus)                  pIC50         8.00
2  C[C@@H]1CN(c2ccc(F)cc2C(F)(F)F)CCN1S(=O)(=O)c1nc(C(C)(O)C(F)(F)F)n(C)n1 (stereo partly drawn)  11-beta-hydroxysteroid dehydrogenase 1 (Mus musculus)                  pIC50         5.86
3  C[C@@H]1CN(c2ccc(F)cc2C(F)(F)F)CCN1S(=O)(=O)c1ccc(C(C)(O)C(F)(F)F)s1 (stereo partly drawn)  11-beta-hydroxysteroid dehydrogenase 1 (Mus musculus)                  pIC50         8.00

###

Method description: Half life in rat liver microsomes
Assay type: ADME, Microsome
Experimental endpoint: half-life

> print(dat)
                            compound.string  measurement
1  C[C@@H]1CN(c2ccc(F)cc2C(F)(F)F)CCN1S(=O)(=O)c1ccc([C@@](O)(C(N)=O)C(F)(F)F)s1     > 30 min

###

Method description: Tmax in Beagle dog at 5 mg/kg, po
Assay context: in vivo
Experimental endpoint: Tmax (h)

> print(dat)
                            compound.string  readout.units  measurement
1  C[C@@H]1CN(c2ccc(F)cc2C(F)(F)F)CCN1S(=O)(=O)c1ccc([C@@](O)(C(N)=O)C(F)(F)F)s1              h          2.8

###

Method description: Cmax in Beagle dog at 5 mg/kg, po
Assay context: in vivo
Experimental endpoint: Cmax (ng/mL)

> print(dat)
                            compound.string  readout.units  measurement
1  C[C@@H]1CN(c2ccc(F)cc2C(F)(F)F)CCN1S(=O)(=O)c1ccc([C@@](O)(C(N)=O)C(F)(F)F)s1          ng/mL         1440

###

The entries below come with measured log10 IC50 values attached.
Experimental system: 11-beta-hydroxysteroid dehydrogenase 1 (Mus musculus)
Method description: Inhibition of mouse 11beta-HSD1 expressed in CHO cells […] incubated for 30 mins prior to substrate addition measured after 120 mins by chemiluminescence assay
Type: cell-based
Experimental endpoint: log10 IC50 (log10 of the value in nM)

> print(dat)
                                   compound  measurement
1  C[C@@H]1CN(c2ccc(F)cc2C(F)(F)F)CCN1S(=O)(=O)c1cccc([C@](O)(C(N)=O)C(F)(F)F)c1         1.00
2  C[C@@H]1CN(c2ccc(F)cc2C(F)(F)F)CCN1S(=O)(=O)c1ccc([C@](O)(C(N)=O)C(F)(F)F)s1         1.00
3  C[C@@H]1CN(c2ccc(F)cc2C(F)(F)F)CCN1S(=O)(=O)c1nc(C(C)(O)C(F)(F)F)n(C)n1 (some centres not stated)         2.22
4  C[C@@H]1CN(c2ccc(F)cc2C(F)(F)F)CCN1S(=O)(=O)c1ccc([C@@](O)(C(N)=O)C(F)(F)F)cc1         1.60
5  C[C@@H]1CN(c2ccc(F)cc2C(F)(F)F)CCN1S(=O)(=O)c1ccc([C@](O)(C(N)=O)C(F)(F)F)cc1         1.30
6  C[C@@H]1CN(c2ccc(F)cc2C(F)(F)F)CCN1S(=O)(=O)c1ccc([C@](C)(O)C(F)(F)F)s1         1.00
7  C[C@@H]1CN(c2ccc(F)cc2C(F)(F)F)CCN1S(=O)(=O)c1cn(C)c(C(C)(O)C(F)(F)F)n1 (some centres not stated)         1.89
